Assay: DLS size of dendrimersomes assembled from glycerol-JDs in water at different concentrations
Assay type: physicochemical
Conditions: JD 0.3 mg·mL−1 in water; size distribution by intensity
endpointName: Dh (nm)
Give bare numbers, in nm.

compound	readoutUnit	Dh (nm)
CCCCCCCCCCCCOc1cc(OCCCCCCCCCCCC)cc(C(=O)OC[C@H](COC(=O)C(C)(COC(=O)c2cc(OCCOCCOCCOC)c(OCCOCCOCCOC)c(OCCOCCOCCOC)c2)COC(=O)c2cc(OCCOCCOCCOC)c(OCCOCCOCCOC)c(OCCOCCOCCOC)c2)OC(=O)c2cc(OCCCCCCCCCCCC)cc(OCCCCCCCCCCCC)c2)c1 [Compound 1R, (3,5)-12G1-GC-(R)-BMPA-(3,4,5)-3EO-G1]	nm	148

Read the entry CCCCCCCCCCCCOc1cc(OCCCCCCCCCCCC)cc(C(=O)OCC(COC(=O)C(C)(COC(=O)c2cc(OCCOCCOCCOC)c(OCCOCCOCCOC)c(OCCOCCOCCOC)c2)COC(=O)c2cc(OCCOCCOCCOC)c(OCCOCCOCCOC)c(OCCOCCOCCOC)c2)OC(=O)c2cc(OCCCCCCCCCCCC)cc(OCCCCCCCCCCCC)c2)c1 (racemic) [Compound 1rac, (3,5)-12G1-GC-(rac)-BMPA-(3,4,5)-3EO-G1] and write its reported Dh (nm).
153
